Values compiled from paper PMC9882070.

Recorded t1/2max of ThT aggregation by entry
# target of assay: the molecule itself
# test details: ThT fluorescence aggregation assay + negative-stain TEM
Give just the numeric value; days need not be written.

{"protein": "KDNIQHVPGGGSVQIVYK [R2R3_2Q tau peptide]", "assay readout": "t1/2max of ThT aggregation", "reported result": 3}

Switching to the query record.
For KDNIKHVPGGGSVQIVYQ [R2R3_3Q tau peptide] , write its t1/2max of ThT aggregation.
0.16
